# System: MS2 coat protein
# Method: apparent KD of MS2 coat protein; higher = weaker reporter binding
# Measurement Context: Eterna round: R107; input ligand: theophylline 2 mM
Catalogue of apparent KD of MS2 coat protein values
Param answer (str): number followed by unit.

The following sequences have reported results that may help.
sequence="CGAUCCUGCAGGGAUACCAGCGCCGCUUGAUAACUGUGCACAUGAGGAUCACCCAUGUAGCGCCCUUGGCAGCCCAGCUAGAGGG [Same State Theophylline B GF25]" result="13.9 nM"
sequence="AUAAGUGUAAGAUACCGCACGCUGGAGGAAGGAGCGCGGAUUAACGCAGGUAGGUCGCCUCGUACAUGAGGAUCACCCAUGUGGC [#14 Same State - Arginine A]" result="38.7 nM"
sequence="AUUCAUGAAAACAUGACAUAGGGAUCACUCCGAGGACCGGUACGGCCGCCACUCGCGAGGAGGCACAUGAGGAUCACCCAUGUUA [SS Tryp A #3]" result="180 nM"
sequence="UAAUAAAUAAAUCCAAGGUGAAGGUCAGAUACCAGCCAGAUAACUGGCCCUUGGCAGCUGAAUAAACUUGAGGAACACCCAAGUA [TheoAS 28 #OpenEnded #MS2Late #AlternativeMS2]" result="82 nM"

query: So what does the record say about apparent KD of MS2 coat protein for CGCACAUGAGGAUCACCCAUGUGAGGGCGGCGAGGACCGGUACGGCCGCCACUCGCAGGACAUGAGGAUCACCCAUGUGCCGCCG [SSTA DOUBLE!!! :-D] ?
result: 501 nM

query: So what does the record say about apparent KD of MS2 coat protein for UAAUAAGUGCCGGUUCUCAGAUCCUCAUGUCGAGGACCGGUACGGCCGCCACUCGAAACAUGAGGAUCACCCAUGUAAUAAUAAU [#08 Exclusion Tryptophan A] ?
result: 73.1 nM

* * *

# Test system: MS2 coat protein
# Method: apparent KD of MS2 coat protein; higher = weaker reporter binding
# Measurement Context: Eterna round: R107; input ligand: theophylline 20 uM
Value Kind: apparent KD of MS2 coat protein (nM)
State just the number; it will be interpreted in nM.

The following sequences have reported results that may help.
sequence="UUCGUUUGCGGAAGGAGCGACGGACAUCGGUGAACGACGCACAUGAGGAUCACCCAUGUACGUCAGGUAGGUCGCCGCUAAGAGU [Tibira]" assayed_system="MS2 coat protein" quantitative_readout=22.3
sequence="UAUCCACAUGAGGAUCACCCAUGUAGGGAAGGAGCGGUGGUUGCACCAGGUAGGUCGCCUUGCUGAGGAUAACCGGUGGAAUCGU [Exclusion - Arginine A (Freestyle 28)]" assayed_system="MS2 coat protein" quantitative_readout=26.9
sequence="CACAUGAGGAUCACCCAUGUCUGAACUGAAGGAGCGCUAAACAAGGCAGGUAGGUCGCGGAAUUUUGUGUGCAUAUGCACAUGGG [9.O]" assayed_system="MS2 coat protein" quantitative_readout=22.3

query: So what does the record say about apparent KD of MS2 coat protein for GCACGACAUGAGGAUCACCCAUGUGCCGAUACCAGCCGGAUAUACGGCCCUUGGCAGCGGAGUGGAUCCGGAGGACCAUGGGUAA [Same State Theophylline A GF7] ?
result: 156

query: So what does the record say about apparent KD of MS2 coat protein for UAGCGAUUUGGUGAUACCAGACGUGUGCAGUCCUCAGACAUGAGGAUCACCCAUGUAUGCGUCCCUUGGCAGCGCUAUGAGGACA [Theo B Ex t6] ?
result: 105

query: So what does the record say about apparent KD of MS2 coat protein for GGUGAUCCGUGCUGCCGGAUCAUCGGUGAUACCAGCAUCGAAAGAUGCCCUUGGCAGCACCAACAUGAGGAUCACCCAUGUAAUA [(M)'-(T)'-(M)''-(T1)-(T2)-(M1)-(M2)_Design5] ?
result: 231

* * *

Catalogue of apparent KD of MS2 coat protein values
# System: MS2 coat protein
# Method: apparent KD of MS2 coat protein; designed switch direction (-1 OFF switch, 1 ON switch): -1; higher = weaker reporter binding
# Measurement Context: input ligand: none
State just the number; it will be interpreted in µM.

The following sequences have reported results that may help.
sequence="GCUGGACAAGGAUAUAUAUGACGUGCUUCGGCACGAAGGUCACAUGAGGAUCACCCAUGUAGAAGGUGUCCAGC [E2/9-C2] (Eterna round: R97, puzzle: Exclusion 2)" value_kind="apparent KD of MS2 coat protein" unit_string=µM quantitative_readout=0.0497
sequence="GGUCUACAUGAGGAUCACCCAUGUAAGGAUAUCGUCACUGGAGCUGCGGCUCCAGUGACGAGAAGGUACGUAAU [E1/12-A3] (Eterna round: R97, puzzle: Exclusion 1)" value_kind="apparent KD of MS2 coat protein" unit_string=µM quantitative_readout=0.0324
sequence="GAGCAGCGAGGAUAUACCUGGACCUGGUCCCAGGCCGAUCAACUUGAGGAUCACCCAAGUAGAAGGCGUGGCUC [Ceortiti] (Eterna round: R97, puzzle: Exclusion 2)" value_kind="apparent KD of MS2 coat protein" unit_string=µM quantitative_readout=0.401
sequence="AUAGGCUGUUUUGUUCGUCACAUGAGGAUCACCCAUGUCUCGAGACUGUGCUUACGUUGCGUGUAUAGUCCGGGUAU [Eternabot (L1) Solution 5] (Eterna round: R97, puzzle: Sensor, turn-off variant 1)" value_kind="apparent KD of MS2 coat protein" unit_string=µM quantitative_readout=0.0363

query: Notebook entry, MS2 coat protein assay: apparent KD of MS2 coat protein of UAAAAGUCAGGAUAUACAUGAGGAUCACCCAUGUAAAAUUUUAAUUUAAUUUUAAGGUGUAGAAGGGACAAUUU [Ex3 #1] (Eterna round: R97, puzzle: Exclusion 3) = ?
result: 0.0349

query: Notebook entry, MS2 coat protein assay: apparent KD of MS2 coat protein of AAUUAGUAUGUGAGGAUAUUAAUGGAAUGACUUAUUAAGAAGGCACAUGAGGAUCACCCAUGUGGGAAGUCACG [JR_BMEx4_Sub013] (Eterna round: R97, puzzle: Brourd's mod of Exclusion 4) = ?
result: 0.0156

query: Notebook entry, MS2 coat protein assay: apparent KD of MS2 coat protein of UUCCUACUUGAGGAUCACCCAAGUCAGGAUAUCCAUAGCCGACACUCUUUUCGGAACGGGAGAAGGGACUUGGU [Tiisatbi] (Eterna round: R97, puzzle: Exclusion 1) = ?
result: 0.0372

query: Notebook entry, MS2 coat protein assay: apparent KD of MS2 coat protein of GCAUUACAUGAGGAUCACCCAUGUGAGGAUAUUAGGGUCGCAAGCACGUCUAGCAGACUGAGAAGGCACGGGUG [Eternabot (L1) Solution 45] (Eterna round: R97, puzzle: Exclusion 1) = ?
result: 0.192

query: Notebook entry, MS2 coat protein assay: apparent KD of MS2 coat protein of GGAGGAGGAGUGAGGAUAUGGUGGUGGAAACACCACCAGAAGGCACAUGAGGAUCACCCAUGUGAUGUAGAGAA [AK-MS2ROC-r4-Bmoexclusion4-16] (Eterna round: R97, puzzle: Brourd's mod of Exclusion 4) = ?
result: 0.016

* * *

# Tested on: K4 kissing-loop RNA reporter;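 further: bound reporter read as fluorescence of individual clusters on recovered sequencing chips by microscopy, with normalized cluster intensities fitted with a binding model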
# Method: apparent KD of K4 kissing-loop reporter; higher = weaker reporter binding
# Measurement Context: Eterna round: R107; input ligand: tryptophan 2.4 mM
Note to self: values exactly at 200 nM are 1. So apparent KD of K4 kissing-loop reporter at or above 200 nM is 1, below is 0.

sequence="ACAGGAUCGAAGAUCCUGAGCAGUCAAAACCGAGGACCGGUACGGCCGCCACUCGGAGUGAUGUUCCGAAGACUGCAAAAUAAAA [#SwitchBubble 3]" class_name=1

query: # bool: apparent KD of K4 kissing-loop reporter of AAAUAGAUCAGUCAACCAGUGAUGUUGGAAGGAGCGUGCGAAAGCACAGGUAGGUCGCCAUAAUAAAAUUGGCUGAUCAAAAUAA >= 200 nM
result: 1

query: # bool: apparent KD of K4 kissing-loop reporter of ACGGUUUCCACGGCCGCCACUUGCGCAUUAGAUCUUACCCUAGGAGUGAUGUUCCAUACAAGUACAAGGACCGGGUGGGACAUAA [theeternabot_sameState_KL_Trp_B_28] >= 200 nM
result: 1

query: # bool: apparent KD of K4 kissing-loop reporter of AAGAGGUAGGCGGCCGCCACUUGUUGUGAACACAUACGAGCCAGUGAUGUUGGUAUUGUGGGCGGAAGGACCGGGCCUACCUGAA [Exclusion - Tryptophan B (Freestyle 20)] >= 200 nM
result: 1

query: # bool: apparent KD of K4 kissing-loop reporter of GAUAUAUAUAGAGGAUAUAGCAGGUGAUACAAGAAAGUGAGUGAUGUUUAUGUAGAUGAUGAUAUGUUAGAAGGCUAUAUAUAUC [radioactive7-modED1598] >= 200 nM
result: 1

query: # bool: apparent KD of K4 kissing-loop reporter of AAGCGUAAAAUGGCGGACAUACUGCUCCCACGAGGACCGGUACGGCCGCCACUCGAGUGCGGCAGUGAUGUUGCCGCCUUAGCGU [KL-XTryp-A20] >= 200 nM
result: 0

query: # bool: apparent KD of K4 kissing-loop reporter of CACUGGGCGAGUGAUGUUCGCUCACGUGAUACCAGUGCCAUCCAACACCCUUGGCAGCAUGCGGGCAGUGAUGUUGUCCAAAGAA [Exclusion Theophylline A GF9] >= 200 nM
result: 0

query: # bool: apparent KD of K4 kissing-loop reporter of UCCUAGGCUCGAAAGAGCCUAGGUUAGACUCAGGAUAUCUGGAAACAGAGAAGGGAGCUACUAGUGAUGUUAGGAAUUCCCAUUU >= 200 nM
result: 0

query: # bool: apparent KD of K4 kissing-loop reporter of UGGAGUUGACGAAAAGUCAACUCCUGAGAAGGAGCGGACGAAAGUCCAGGUAGGUCGCUCACUACCAGUGAUGUUGGUAAUUCAA [#OpenEnded 3] >= 200 nM
result: 1

query: # bool: apparent KD of K4 kissing-loop reporter of AGCUCAGAGUGACUCGAUAAGAGUCACAAACGAGGACCGGUACGGCCGCCACUCGAAAUAAUGAGAGUGAUGUUCUCGCUGAGCA [#SwitchBubble 2 #StaticStem #K4Late] >= 200 nM
result: 1

query: # bool: apparent KD of K4 kissing-loop reporter of ACGCAUGGGCAAGGAUAUGGUAGUGAUGUUACCUUUGCGGUGCCGGGAACGAAUGACGGUCAUGCGCCAGAAGGUGCUCAGACAA [theeternabot_exclusion_KL_FMN_B_23] >= 200 nM
result: 0

query: # bool: apparent KD of K4 kissing-loop reporter of GCAUCCUAGUCGGCCGCCACUGACAUGAGUGAUGUUCAUGUUCGUCAGUGAUGUUGACGUUGUUACAGGACCGGGACUAGGAUGC [KL-SSTryp-B8 Brourdwalk4 #Double KL] >= 200 nM
result: 0
